Reference source for all entries: paper PMC6691788

# Test system: SK-MEL-5
# EXPERIMENTAL_DETAILS: NCI 60 cell panel SRB screen
# Format: cell-based
# EXPERIMENTAL_PARAMETERS: Homo sapiens, SK-MEL-5
Assignment: determine reported GI50 for the given molecules.
All answers are understood in nM, so give the number only.

In: So what's the measured GI50 for this one? Clc1ccc(Nc2nnc(COc3ccccc3)c3ccccc23)cc1 [Compound 17a]
Out: 1080

In: So what's the measured GI50 for this one? Clc1ccc(Nc2nnc(CNc3ccccc3)c3ccccc23)cc1 [Compound 16a]
Out: 2080

In: So what's the measured GI50 for this one? O=C(Nc1ccc(Cl)cc1)Nc1ccc(Nc2nncc3ccccc23)cc1
Out: 2310

In: So what's the measured GI50 for this one? COc1cccc(NCc2nnc(Nc3ccc(Cl)cc3)c3ccccc23)c1 [Compound 16d]
Out: 810

In: So what's the measured GI50 for this one? O=C(Nc1ccc(Cl)cc1)Nc1ccc(Oc2nncc3ccccc23)cc1
Out: 1020

In: So what's the measured GI50 for this one? O=C(Nc1ccccc1)Nc1ccc(Oc2nnc(Cl)c3ccccc23)cc1 [Compound 13a]
Out: 4560

In: So what's the measured GI50 for this one? Cc1nnc(Nc2ccc(NC(=O)Nc3ccc(Cl)cc3)cc2)c2ccccc12
Out: 1850
